Tested on: A498
Assay: NCI tumour cell line growth inhibition, 48 h
The source made the active and inactive calls. Rule as the data show it: active = GI50 up to about 1.1 µM and inactive = higher.
Pick one and only one: active, inactive

Example entries begin here.
[
  {
    "COMPOUND": "CCCCC(C(=O)NCCNC(=O)CCC(=O)N(C)O)C(=O)NCCNC(=O)CCC(=O)N(C)O",
    "CLASS_NAME": "inactive"
  },
  {
    "COMPOUND": "c1ccc([P+](Cc2ccc(C[P+](c3ccccc3)(c3ccccc3)c3ccccc3)s2)(c2ccccc2)c2ccccc2)cc1",
    "CLASS_NAME": "inactive"
  },
  {
    "COMPOUND": "CC(C)c1cccc(C(C)C)c1OS(=O)(=O)NC(=O)OC(C(F)(F)F)C(F)(F)F",
    "CLASS_NAME": "inactive"
  },
  {
    "COMPOUND": "CCOC(=O)C(=O)Nc1cccc(C)c1C",
    "CLASS_NAME": "inactive"
  },
  {
    "COMPOUND": "O=C1NC(=S)N(c2cccc3ccccc23)C(=O)/C1=C/c1c[nH]c2ccccc12",
    "CLASS_NAME": "inactive"
  },
  {
    "COMPOUND": "Cc1c(C(=O)/C=C/c2ccc([N+](=O)[O-])cc2)[n+]([O-])c2ccccc2[n+]1[O-]",
    "CLASS_NAME": "inactive"
  }
]

Record lookup: outcome of this test for CC(C)(C)C(=O)OCC1OC(N=[N+]=[N-])C(OC(=O)C(C)(C)C)C(OC(=O)C(C)(C)C)C1OC(=O)C(C)(C)C (stereo not drawn) ? inactive

Hello, I am checking results. What call was entered for COc1cccc(/C=C/C(=O)N2CC(CCl)c3c2cc(N)c2ccccc32)c1 (stereo not drawn) ? active

----------
System: MOLT-4
Experiment: NCI tumour cell line growth inhibition, 48 h
Calls of active or inactive are those of the source. No stated cut-off is given here; in the data, active = GI50 up to about 1.1 µM and inactive = higher.
ASSAY_ENDPOINT: GI50

[
  {
    "MOLECULE": "O=C1NC(=S)N(c2cccc3ccccc23)C(=O)/C1=C/c1c[nH]c2ccccc12",
    "RECORDED_VALUE": "1.87 µM (inactive)"
  },
  {
    "MOLECULE": "N=C(N)N/N=C/c1c(-c2ccc(Cl)cc2)nc2sc(Cl)cn12",
    "RECORDED_VALUE": "0.504 µM (active)"
  },
  {
    "MOLECULE": "CCCCC1(N=[N+]=[N-])C(=O)C2C=CC=C3c4ccccc4N(C1=O)C32 (stereo unspecified)",
    "RECORDED_VALUE": "15.3 µM (inactive)"
  },
  {
    "MOLECULE": "O=C(OCc1ccccc1)N1CCNCCNCC1",
    "RECORDED_VALUE": "> 100 µM (inactive)"
  },
  {
    "MOLECULE": "COc1ccc(N)c(C(O)CCNC(C)=O)c1 (stereo unspecified)",
    "RECORDED_VALUE": "> 100 µM (inactive)"
  },
  {
    "MOLECULE": "Cc1ccc(O)c(C2=CC3=NNC(=O)C3C(c3cccc(Br)c3)C2)c1 (stereo unspecified)",
    "RECORDED_VALUE": "30.9 µM (inactive)"
  },
  {
    "MOLECULE": "c1nc2cscc2c2cscc12",
    "RECORDED_VALUE": "> 100 µM (inactive)"
  },
  {
    "MOLECULE": "[N-]=[N+]=CC(=O)OCC1SCCCS1",
    "RECORDED_VALUE": "> 100 µM (inactive)"
  }
]

Item: CC(C)c1cc(=O)[nH]c2cc(N)ccc12 | GI50: > 100 µM (inactive)

GET /value?item= O=C(NC1(C(=O)NNc2nnc(-c3ccccc3)c(-c3ccccc3)n2)C(c2ccccc2)C(c2ccccc2)=NN1c1ccccc1)c1ccccc1 (stereo unspecified) &field=GI50 returns > 100 µM (inactive)

The molecule listed as CC1CNC(NS(=O)(=O)c2cc(C(=O)Nc3ccc(Cl)cc3)c(Cl)cc2S)=NN1 (stereo unspecified) shows GI50 equal to 52.8 µM (inactive)

The molecule listed as Cc1nn(C)c(=S)n(C)c1=O has a reported GI50 of 1.29 µM (inactive)

Item: COc1cccc2c1c1ccc3c(c1n2C)C(=O)C=CC3=O | GI50: 2.64 µM (inactive)

----------
Tested on: NCI-H460
Assay: NCI tumour cell line growth inhibition, 48 h
The source made the active and inactive calls. Rule as the data show it: active = GI50 up to about 1.1 µM and inactive = higher.
Lab note: assign the record to one of active, inactive

Just curious, what result did CCOC(=O)c1ccc2nc3n(c2c1)C(c1c(F)cccc1F)SC3 (stereo not drawn) get here? inactive

Fill in: this test's call for N=C(N)N/N=C/c1c(-c2ccc(Cl)cc2)nc2sc(Cl)cn12 is ___ inactive

----------
Tested on: SF-268
Test: NCI tumour cell line growth inhibition, 48 h
Activity calls are given as the source filed them. No stated cut-off is given here; in the data, active = GI50 up to about 1.1 µM and inactive = higher.
The categories you may choose from are active, inactive

Recorded results for 3 molecules are shown here.
[
  {
    "MOLECULE": "O=c1[nH]n2c(=O)cc[nH]c2c1-c1nnns1",
    "CLASS_NAME": "inactive"
  },
  {
    "MOLECULE": "N=C(N)Nc1ccc(CC(N)C(=O)NCC(=O)C(CC(=O)O)c2ncc(NC(=O)C(F)(F)F)o2)cc1 (stereo unspecified)",
    "CLASS_NAME": "inactive"
  },
  {
    "MOLECULE": "CC1(c2cccc3ccccc23)OC(=O)c2ccccc21 (stereo unspecified)",
    "CLASS_NAME": "inactive"
  }
]

Hi team, can someone confirm the assay call for N/N=C(/Cc1nc2ccc(C(=O)c3ccccc3)cc2nc1O)C(=O)Nc1ccc([N+](=O)[O-])cc1[N+](=O)[O-] ? inactive

Test call, this molecule: C=C1C(=O)OC2C3OC(C)(CCC(O)C3COC(C)=O)CC(OC(=O)/C(=C/C)COC(C)=O)C12 (stereo unspecified) active

Please share the test call associated with NCCOc1ccccn1 . inactive

----------
GI50 values, listed per item
Test system: NCI-H522
Test: NCI tumour cell line growth inhibition, 48 h
Active and inactive are the calls of the source. No stated cut-off is given here; in the data, active = GI50 up to about 1.1 µM and inactive = higher.

Consider the following illustrative entries.
[
  {
    "COMPOUND": "N/N=C(/Cc1nc2ccc(C(=O)c3ccccc3)cc2nc1O)C(=O)Nc1ccc([N+](=O)[O-])cc1[N+](=O)[O-]",
    "GI50": "> 10 µM (inactive)"
  },
  {
    "COMPOUND": "CC1(C)OCC(C2CCC3(C)C4=CCC5C(C)(C)C(O)CCC5(C)C4CCC23C)CC(O)C1O (stereo not given)",
    "GI50": "20 µM (inactive)"
  },
  {
    "COMPOUND": "COc1cc(O)c2c(=O)cc(C3(OC(C)=O)C=CC(OC4OC(CO)C(O)C(O)C4O)C=C3)oc2c1 (stereo not given)",
    "GI50": "> 100 µM (inactive)"
  },
  {
    "COMPOUND": "O=S(=O)(c1ccccc1)n1cc(C[P+](c2ccccc2)(c2ccccc2)c2ccccc2)c2ccccc21",
    "GI50": "2.36 µM (inactive)"
  }
]

// switching to the query compound
// returns GI50 for COc1ccc(N)c(C(O)CCNC(C)=O)c1 (stereo not given) with NCI-H522; value = > 100 µM (inactive)

----------
System: DU-145
Experiment: NCI tumour cell line growth inhibition, 48 h
The source made the active and inactive calls. Cut-off read from the data, not from the text of the source: active = GI50 up to about 1.1 µM and inactive = higher.
In this exercise, the only acceptable responses are active, inactive

[
  {
    "MOLECULE": "CC(=O)Nc1ccc2c3c(cc(O)c2c1)N(C(=O)CCCC(=O)Nc1ccc2c4c(cc(O)c2c1)N(C(=O)OC(C)(C)C)CC4CCl)CC3CCl (stereo not drawn)",
    "CLASS_NAME": "active"
  }
]

// return assay outcome for CC(=O)NC1C(OCc2ccccc2)OC(CO)C(O)C1OCC(=O)N[C@@H](C)C(=O)N[C@H](CCC(=O)NCCCNc1ccc([N+](=O)[O-])c2[nH]c3ccccc3c(=O)c12)C(N)=O (stereo partly drawn) inactive

Returns: the outcome recorded for CO/C(=N\N=C\c1ccc(OC)c(OC)c1)c1ccncc1 in this assay. inactive

What classification did O=C(CCc1cc(O)cc(O)c1)NCCc1ccc(O)c(O)c1 end up with in this test? inactive

In this assay, the call recorded for Cc1ccc(/N=C2\C(=O)C3=C(OC(C)(C)CC3)c3ccccc32)cc1 was what? inactive

Entry C=C[C@]1(C)C[C@@H](OC(=O)CO)[C@@]2(C)[C@H](C)CC[C@]3(CCC(=O)[C@H]32)[C@@H](C)[C@@H]1O : call = ? inactive

Tell me the recorded outcome of this test for C=C1c2nc3ccccc3n2C=C(c2ccccc2)N1c1ccc([N+](=O)[O-])cc1 . inactive

What did the test return for O=C(O)/C(=C\c1ccncc1)c1cccc2ccccc12 ? inactive
